Test system: HCC1143
Details: 72 h
Record form. Attribute: EC50, CellTiter-Glo. Fill in for each entry.
Numbers only, in nM.

Consider the worked cases shown below.
COMPOUND: COc1cc([C@@H]2c3cc4c(cc3[C@@H](O[C@@H]3O[C@@H]5CO[C@@H](c6cccs6)O[C@H]5[C@H](O)[C@H]3O)[C@H]3COC(=O)[C@H]23)OCO4)cc(OC)c1O [Teniposide]
TARGET OR SYSTEM: HCC1143
EC50, CellTiter-Glo [nM]: 842

COMPOUND: Nc1ccccc1NC(=O)c1ccc(CNC(=O)OCc2cccnc2)cc1 [Entinostat]
TARGET OR SYSTEM: HCC1143
EC50, CellTiter-Glo [nM]: 4760

COMPOUND: CC[C@@H]1C(=O)N(C)c2cnc(Nc3ccc(C(=O)NC4CCN(C)CC4)cc3OC)nc2N1C1CCCC1 [BI 2536]
TARGET OR SYSTEM: HCC1143
EC50, CellTiter-Glo [nM]: 6.01

COMPOUND: C=CC(=O)Nc1cc2c(Nc3ccc(F)c(Cl)c3)ncnc2cc1OCCCN1CCOCC1 [Canertinib]
TARGET OR SYSTEM: HCC1143
EC50, CellTiter-Glo [nM]: 4710

Q) Item: O=C(Cc1ccc(-c2ccc(OCCN3CCOCC3)cc2)cn1)NCc1ccccc1 [KX2-391] Test system: HCC1143 Read-out: EC50, CellTiter-Glo Value: ?
A) 28.2

* * *

System: CAL-85-1
Assay: normalised response (% of control), CellTiter-Glo; higher = more viable cells (100 = DMSO, 0 = benzethonium chloride kill control)
Details: incubation time: 72 h
ASSAY ENDPOINT: normalised response (%)
Numbers only, in %.

Consider the worked cases shown below.
MOLECULE: CCCCC(=O)OCC(=O)[C@]1(O)Cc2c(O)c3c(c(O)c2[C@@H](O[C@H]2C[C@H](NC(=O)C(F)(F)F)[C@H](O)[C@H](C)O2)C1)C(=O)c1c(OC)cccc1C3=O [Valrubicin] (0.5 nM)
normalised response [%]: 98.2

MOLECULE: Cc1ccc(-c2cc(C(F)(F)F)nn2-c2ccc(S(N)(=O)=O)cc2)cc1 [Celecoxib] (10 nM)
normalised response [%]: 103

MOLECULE: C=CC(=O)Nc1cc2c(Nc3ccc(F)c(Cl)c3)ncnc2cc1OCCCN1CCOCC1 [Canertinib] (1 nM)
normalised response [%]: 103

Please state, for each entry, its recorded normalised response.
1. Nc1ccccc1NC(=O)c1ccc(CNC(=O)OCc2cccnc2)cc1 [Entinostat] (1000 nM)
2. COc1cc2c(NC3CCN(C(C)C)CC3)nc(C3CCCCC3)nc2cc1OCCCN1CCCC1 [UNC0638] (1 nM)
3. N#Cc1ccc(C(c2ccc(C#N)cc2)n2cncn2)cc1 [Letrozole] (1 nM)

A)
105
97.4
100

Please state, for each entry, its recorded normalised response.
1. CC1=C(/C=C/C(C)=C/C=C/C(C)=C/C(=O)O)C(C)(C)CCC1 [Tretinoin] (10 nM)
2. Nc1nc(F)nc2c1ncn2[C@@H]1O[C@H](CO)[C@@H](O)[C@@H]1O [Fludarabine] (1000 nM)
3. C=CC(=O)N1CCC[C@@H](n2nc(-c3ccc(Oc4ccccc4)cc3)c3c(N)ncnc32)C1 [Ibrutinib] (1 nM)
4. COc1cc2nccc(Oc3ccc(NC(=O)Nc4cc(C)on4)c(Cl)c3)c2cc1OC [Tivozanib] (1000 nM)
5. CC[C@@H]1C(=O)N(C)c2cnc(Nc3ccc(C(=O)NC4CCN(C)CC4)cc3OC)nc2N1C1CCCC1 [BI 2536] (100 nM)

A)
1: 100; 2: 98.5; 3: 98.3; 4: 103; 5: 81.7

Please state, for each entry, its recorded normalised response.
1. C=CCc1cccc(/C=N/NC(=O)CN2CCN(Cc3ccccc3)CC2)c1O [PAC-1] (1 nM)
2. Cc1ccc(-c2cc(C(F)(F)F)nn2-c2ccc(S(N)(=O)=O)cc2)cc1 [Celecoxib] (1000 nM)
3. Cc1cnc(NC(=O)Nc2cc(Br)c(C)cc2OC[C@@H]2CNCCO2)cn1 [Rabusertib] (100 nM)
4. CCN(CC)CCCC(C)Nc1c2ccc(Cl)cc2nc2ccc(OC)cc12 (centres undefined) [Mepacrine] (5 nM)
5. Oc1ncc(N(CCCl)CCCl)c(O)n1 [Uracil mustard] (10 nM)
6. Cc1ccc(-c2cc(C(F)(F)F)nn2-c2ccc(S(N)(=O)=O)cc2)cc1 [Celecoxib] (1 nM)

A)
1: 99.7; 2: 93.3; 3: 99; 4: 93.8; 5: 95.2; 6: 104
